System: erythrocytes
TEST_DETAILS: Hemolysis assay (Example 11)
Assay type: cell-based
Parameters: dose or concentration left out as unconfirmed
MEASUREMENT_CONDITIONS: 1 h
Where no end group is shown, it is not given here.
Answer -1 if % Hemolysis Mean is under 2%, and 1 if it is 2% or more.

Would you say CNYITELRRQKLRLLHKGLA [Peptide 170] shows % Hemolysis Mean at minimum 2%?
1

// inclusive: % Hemolysis Mean at least 2%? input: CNYITELLRQKARALHKGLA [Peptide 161]
-1

Is % Hemolysis Mean for CNYIEELRRQWARALHKGLA [Peptide 175] at or above 2%?
-1

Does % Hemolysis Mean meet or surpass 2% for CNYITELRRQLARALHKGLA [Peptide 140] ?
1

Check this sequence for % Hemolysis Mean at or above 2%: CNYIEELWRQLARALHKGLA [Peptide 176]
1

Can CNYIEELRRQLARALHKWLA [Peptide 173] be said to have % Hemolysis Mean at or above 2%?
1

Further cases:
Does % Hemolysis Mean meet or surpass 2% for CNYITELLRQLARATKKGLA [Peptide 152] ?
1

Reported % Hemolysis Mean reaches at least 2% for CNYIEELLRQLARATHKGLA [Peptide 151] ?
-1

Hello, I need to know if CNYIEELLRQLARARHKGLA [Peptide 157] has measured % Hemolysis Mean not below 2%. Thanks!
-1

Identify whether the reported % Hemolysis Mean of the following sequence is 2% or greater: CNYIEELLRQLARASKKGLA [Peptide 149]
-1

Say whether CNYITELKRQLARALHKGLA [Peptide 143] shows % Hemolysis Mean of 2% or more.
1

Threshold query (% Hemolysis Mean >= 2%) on CNYIWELRRQLARALHKGLA [Peptide 177]
1

Determine whether this sequence has % Hemolysis Mean no lower than 2%: CNYITELLRQLARASHKGLA [Peptide 147]
1

I'd appreciate it if you could say whether CNYIEELKRQLARALKKGLA [Peptide 146] has % Hemolysis Mean at least equal to 2%.
1
